Tgt: MMP-9 (Homo sapiens, UniProt P14780)
Sequence (P14780 94-707): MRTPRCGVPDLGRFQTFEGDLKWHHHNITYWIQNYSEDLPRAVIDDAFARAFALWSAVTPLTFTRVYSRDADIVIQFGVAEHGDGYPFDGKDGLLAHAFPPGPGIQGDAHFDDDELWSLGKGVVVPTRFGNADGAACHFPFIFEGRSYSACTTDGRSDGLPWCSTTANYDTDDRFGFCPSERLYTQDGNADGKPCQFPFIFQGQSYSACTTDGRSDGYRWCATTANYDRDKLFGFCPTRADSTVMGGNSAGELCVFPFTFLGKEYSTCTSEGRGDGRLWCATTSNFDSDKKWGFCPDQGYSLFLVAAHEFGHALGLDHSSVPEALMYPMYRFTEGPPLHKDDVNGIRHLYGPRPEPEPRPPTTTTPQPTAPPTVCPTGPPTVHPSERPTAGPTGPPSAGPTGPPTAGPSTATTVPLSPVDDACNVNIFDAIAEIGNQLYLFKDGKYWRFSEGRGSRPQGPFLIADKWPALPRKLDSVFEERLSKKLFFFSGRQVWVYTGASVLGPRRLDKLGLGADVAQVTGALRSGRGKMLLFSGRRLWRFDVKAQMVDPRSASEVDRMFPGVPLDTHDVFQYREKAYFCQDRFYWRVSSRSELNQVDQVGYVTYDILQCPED

Compound | IC50
O=C(C=Cc1ccc(Cl)cc1Cl)NO [Hydroxamate, N-Hydroxy-2,4-dichlorocinnanamide] | > 100 µM

* * *

Tgt: UniProtKB P03956
Sequence (P03956 100-469): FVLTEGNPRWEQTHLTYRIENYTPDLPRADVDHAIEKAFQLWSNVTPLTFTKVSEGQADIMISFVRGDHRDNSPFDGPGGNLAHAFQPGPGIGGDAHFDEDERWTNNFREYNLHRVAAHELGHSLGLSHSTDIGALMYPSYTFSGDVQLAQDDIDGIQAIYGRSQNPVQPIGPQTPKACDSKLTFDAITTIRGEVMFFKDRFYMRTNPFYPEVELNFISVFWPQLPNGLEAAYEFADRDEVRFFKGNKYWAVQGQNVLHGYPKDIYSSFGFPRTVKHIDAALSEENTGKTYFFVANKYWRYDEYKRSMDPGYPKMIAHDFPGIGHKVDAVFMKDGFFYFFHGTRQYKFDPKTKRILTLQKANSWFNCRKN

Compound | IC50
O=C(C=Cc1ccc(Cl)cc1Cl)NO [Hydroxamate, N-Hydroxy-2,4-dichlorocinnanamide] | > 100 µM

* * *

Tgt: BaLF (Bacillus anthracis)
Sequence (P15917 34-809 limits assumed): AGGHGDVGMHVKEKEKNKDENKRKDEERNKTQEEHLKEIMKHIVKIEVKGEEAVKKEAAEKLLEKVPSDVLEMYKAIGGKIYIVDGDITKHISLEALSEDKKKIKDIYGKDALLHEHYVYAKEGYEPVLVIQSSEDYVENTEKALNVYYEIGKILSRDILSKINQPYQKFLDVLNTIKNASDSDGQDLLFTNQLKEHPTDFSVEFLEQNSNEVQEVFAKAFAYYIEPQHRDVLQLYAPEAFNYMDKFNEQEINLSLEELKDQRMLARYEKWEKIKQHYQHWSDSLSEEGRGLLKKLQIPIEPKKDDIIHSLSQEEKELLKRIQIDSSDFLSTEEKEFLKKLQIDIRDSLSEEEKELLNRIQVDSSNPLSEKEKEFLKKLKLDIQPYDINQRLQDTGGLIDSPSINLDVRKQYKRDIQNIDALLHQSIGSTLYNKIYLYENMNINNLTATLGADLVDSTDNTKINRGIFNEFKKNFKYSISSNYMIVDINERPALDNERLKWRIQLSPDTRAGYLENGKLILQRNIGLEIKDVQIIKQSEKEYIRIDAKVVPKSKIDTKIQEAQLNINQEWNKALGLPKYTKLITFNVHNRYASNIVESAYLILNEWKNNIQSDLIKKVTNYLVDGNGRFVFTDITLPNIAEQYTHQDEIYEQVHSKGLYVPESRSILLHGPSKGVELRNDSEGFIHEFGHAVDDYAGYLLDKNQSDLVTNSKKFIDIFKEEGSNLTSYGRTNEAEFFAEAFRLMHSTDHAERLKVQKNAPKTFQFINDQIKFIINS

Molecule | IC50
O=C(C=Cc1ccc(Cl)cc1Cl)NO [Hydroxamate, N-Hydroxy-2,4-dichlorocinnanamide] | > 100 µM

* * *

Tgt: BoNT/B LC (Clostridium botulinum)
Sequence (P10844 2-441 limits assumed): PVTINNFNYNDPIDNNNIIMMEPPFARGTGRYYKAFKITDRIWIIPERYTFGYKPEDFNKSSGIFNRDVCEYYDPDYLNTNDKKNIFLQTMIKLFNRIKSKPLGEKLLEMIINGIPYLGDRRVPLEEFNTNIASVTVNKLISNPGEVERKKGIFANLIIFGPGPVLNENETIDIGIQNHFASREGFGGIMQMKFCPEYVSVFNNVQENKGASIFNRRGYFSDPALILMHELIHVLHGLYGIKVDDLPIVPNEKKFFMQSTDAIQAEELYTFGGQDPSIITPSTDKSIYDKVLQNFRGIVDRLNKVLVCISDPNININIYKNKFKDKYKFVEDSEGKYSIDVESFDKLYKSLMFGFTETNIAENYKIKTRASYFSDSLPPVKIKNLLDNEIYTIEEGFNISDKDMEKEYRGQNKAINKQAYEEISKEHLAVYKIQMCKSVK
Condition: read-out: IC50 BoNT/B LC FRET
pIC50: −log10 of the molar value.

Molecule | Tgt | pIC50
O=C(C=Cc1ccc(Cl)cc1Cl)NO [Hydroxamate, N-Hydroxy-2,4-dichlorocinnanamide] | BoNT/B LC (Clostridium botulinum) | < 4.00
